Test system: MDA-MB-435 melanoma
Assay: NCI-60 one-dose screen, 48 h
Conditions: 10 µM unless noted
Experimental: Growth inhibition of the MDA-MB-435 human Melanoma tumor cell line is measured as a screen for anti-cancer activity. Cells are grown in 96 well plates and exposed to the test compound for 48 hours. Compounds are tested at a single concentration, which is 10^-5 M for most compounds. The reported endpoint is percent growth (GI% or GIPRCNT), where numbers from 0 - 100% represent growth inhibition, and numbers from -100% - 0 represent cell death. […]
The panel holds about 83,000 compounds, 20% with a hit somewhere; the sample as a whole holds those more often. The source made the active and inactive calls. The calls were made as follows: active = growth percent below 10; inactive = the rest.
Respond only with the outcome that fits, drawn from yes for active, no for inactive

Some solved cases for reference:
COMPOUND: Clc1nc(Cl)c2ncn(C/C=C\Cn3cnc4c(Cl)nc(Cl)nc43)c2n1
DISCRETE_LABEL: yes

COMPOUND: Cc1nc(NC(=O)N2CCC[C@H]2C(N)=O)sc1-c1ccnc(C(C)(C)C(F)(F)F)c1
DISCRETE_LABEL: no

COMPOUND: NC(=O)N1N=C(c2ccc(Cl)cc2)CC1c1cn(-c2ccccc2)nc1-c1ccc(Cl)cc1 (stereo not given)
DISCRETE_LABEL: no

COMPOUND: O=C(COc1ccc(/C=C2\Cc3ccc(Cl)cc3C2=O)cc1)Nc1nccs1
DISCRETE_LABEL: no

Query: // param item: CC(C)(C)c1cnc(CSc2cnc(NC(=O)C3CCNCC3)s2)o1 ; yields the recorded call
Reply: yes

Query: Another compound to look at: O=C(c1ccc(/C=C/c2n[nH]c3ccccc23)cc1)N1CCNCC1
Reply: no

Query: Check O=C(NCCO)Nc1ccc(-c2nc(N3CCOCC3)c3cccn3n2)cc1 too.
Reply: yes

Query: // same read-out, input: COc1ccc2c(CCCc3ccc(Cl)cc3Cl)c3[n+](cc2c1OC)CCc1cc2c(cc1-3)OCO2
Reply: yes

Query: Record: Cc1ncc(-c2ccnc(Nc3ccc(S(C)(=O)=O)cc3)n2)n1C(C)C
Reply: yes
